Assign protein stability index to each entry below.
B1: IFRG15 (parent)
chain: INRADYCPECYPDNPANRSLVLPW

- Variants of: B1
- protocol.description: protein stability index of a GFP-peptide fusion (GPS, HEK-293T) (PSI 1-6); higher = more stable;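 also: lentivirally expressed fusions sorted by FACS into six bins by GFP to DsRed ratio, PSI derived from sequencing read proportions per bin multiplied by bin number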
- test.settings: c terminus: a fixed tail appended
Enter a number only.

Task: Look up and state reported protein stability index for N2S
Result: 1.82

Task: Look up and state reported protein stability index for P23D
Result: 2.92

Task: Look up and state reported protein stability index for D13G
Result: 1.98

Task: Look up and state reported protein stability index for Y11P
Result: 3.15

Task: Look up and state reported protein stability index for W24Q
Result: 2.24

Task: Look up and state reported protein stability index for P15V
Result: 1.51

Task: Look up and state reported protein stability index for P23C
Result: 1.67

Task: Look up and state reported protein stability index for A4P
Result: 2.47

Task: Look up and state reported protein stability index for R18E
Result: 2.13

Task: Look up and state reported protein stability index for N14M
Result: 1.68

Task: Look up and state reported protein stability index for N17F
Result: 1.54

Task: Look up and state reported protein stability index for P23M
Result: 2.5

Task: Look up and state reported protein stability index for R3I
Result: 1.54

Task: Look up and state reported protein stability index for R18L
Result: 1.83

Task: Look up and state reported protein stability index for D5E
Result: 1.96

Task: Look up and state reported protein stability index for C7P
Result: 2.42

Task: Look up and state reported protein stability index for Y6N
Result: 2.86

Task: Look up and state reported protein stability index for N17Q
Result: 1.79

Task: Look up and state reported protein stability index for P23R
Result: 1.58

Task: Look up and state reported protein stability index for V21E
Result: 2.29

Task: Look up and state reported protein stability index for Y11I
Result: 2.25

Task: Look up and state reported protein stability index for C10T
Result: 2.35

Task: Look up and state reported protein stability index for S19L
Result: 2.16

Task: Look up and state reported protein stability index for N14R
Result: 2

Task: Look up and state reported protein stability index for A16I
Result: 1.6

Task: Look up and state reported protein stability index for N2V
Result: 1.91

Task: Look up and state reported protein stability index for A16N
Result: 2.4

Task: Look up and state reported protein stability index for A4Y
Result: 2.63

Task: Look up and state reported protein stability index for D13Y
Result: 1.57

Task: Look up and state reported protein stability index for L20Y
Result: 1.86

Task: Look up and state reported protein stability index for P12L
Result: 1.9

Task: Look up and state reported protein stability index for S19W
Result: 1.99

Task: Look up and state reported protein stability index for N17T
Result: 2.53

Task: Look up and state reported protein stability index for D5K
Result: 1.4

Task: Look up and state reported protein stability index for A16E
Result: 2.42

Task: Look up and state reported protein stability index for D5G
Result: 1.91

Task: Look up and state reported protein stability index for E9K
Result: 1.63

Task: Look up and state reported protein stability index for C7T
Result: 2.68

Task: Look up and state reported protein stability index for R18V
Result: 1.9

Task: Look up and state reported protein stability index for Y11F
Result: 2.2

Task: Look up and state reported protein stability index for P12A
Result: 2.04

Task: Look up and state reported protein stability index for C10V
Result: 2.32

Task: Look up and state reported protein stability index for W24F
Result: 2.3

Task: Look up and state reported protein stability index for V21A
Result: 2.54

Task: Look up and state reported protein stability index for P23W
Result: 2.4

Task: Look up and state reported protein stability index for Y11Q
Result: 2.58
